- Test system: HeLa Kyoto
- protocol-description: solubility in G1/S (NP-40 vs SDS abundance) (log2 ratio); higher = more soluble
- cond: cell cycle stage: G1/S
# maps each entry to its solubility in G1/S (log2)
Give the figure only, with no unit attached.

Example entries and their recorded answers appear below.
[[record]]
macromolecule_sequence = "MSETVICSSRATVMLYDDGNKRWLPAGTGPQAFSRVQIYHNPTANSFRVVGRKMQPDQQVVINCAIVRGVKYNQATPNFHQWRDARQVWGLNFGSKEDAAQFAAGMASALEALEGGGPPPPPALPTWSVPNGPSPEEVEQQKRQQPGPSEHIERRVSNAGGPPAPPAGGPPPPPGPPPPPGPPPPPGLPPSGVPAAAHGAGGGPPPAPPLPAAQGPGGGGAGAPGLAAAIAGAKLRKVSKQEEASGGPTAPKAESGRSGGGGLMEEMNAMLARRRKATQVGEKTPKDESANQEEPEARVPAQSESVRRPWEKNSTTLPRMKSSSSVTTSETQPCTPSSSDYSDLQRVKQELLEEVKKELQKVKEEIIEAFVQELRKRGSP [VASP]"
observed_property = "solubility in G1/S (log2)"
observed_value = 0.466

[[record]]
macromolecule_sequence = "MAAGTAAALAFLSQESRTRAGGVGGLRVPAPVTMDSFFFGCELSGHTRSFTFKVEEEDDAEHVLALTMLCLTEGAKDECNVVEVVARNHDHQEIAVPVANLKLSCQPMLSLDDFQLQPPVTFRLKSGSGPVRITGRHQIVTMSNDVSEEESEEEEEDSDEEEVELCPILPAKKQGGRP [NPM3]"
observed_property = "solubility in G1/S (log2)"
observed_value = -0.153


Let us move to another entry and its solubility in G1/S (log2).
-- ask Look at this sequence and give its reported solubility in G1/S (log2). MSLVIRNLQRVIPIRRAPLRSKIEIVRRILGVQKFDLGIICVDNKNIQHINRIYRDRNVPTDVLSFPFHEHLKAGEFPQPDFPDDYNLGDIFLGVEYIFHQCKENEDYNDVLTVTATHGLCHLLGFTHGTEAEWQQMFQKEKAVLDELGRRTGTRLQPLTRGLFGGS [YBEY]
-- reply -0.21

---

- Test system: HeLa Kyoto
- protocol-description: melting temperature (median over replicates), in situ; higher = more thermally stable
- cond: cell cycle stage: mitosis
Item-by-item account of melting temperature
All answers are understood in °C, so give the number only.

[[record]]
macromolecule_sequence = "MPKRKAAGQGDMRQEPKRRSARLSAMLVPVTPEVKPKRTSSSRKMKTKSDMMEENIDTSAQAVAETKQEAVVEEDYNENAKNGEAKITEAPASEKEIVEVKEENIEDATEKGGEKKEAVAAEVKNEEEDQKEDEEDQNEEKGEAGKEDKDEKGEEDGKEDKNGNEKGEDAKEKEDGKKGEDGKGNGEDGKEKGEDEKEEEDRKETGDGKENEDGKEKGDKKEGKDVKVKEDEKEREDGKEDEGGNEEEAGKEKEDLKEEEEGKEEDEIKEDDGKKEEPQSIV [HMGN5]"
observed_property = "melting temperature"
observed_value = 59.8

[[record]]
macromolecule_sequence = "MLGMIKNSLFGSVETWPWQVLSKGDKEEVAYEERACEGGKFATVEVTDKPVDEALREAMPKVAKYAGGTNDKGIGMGMTVPISFAVFPNEDGSLQKKLKVWFRIPNQFQSDPPAPSDKSVKIEEREGITVYSMQFGGYAKEADYVAQATRLRAALEGTATYRGDIYFCTGYDPPMKPYGRRNEIWLLKT [HEBP1]"
observed_property = "melting temperature"
observed_value = 53.3


-- ask Please state recorded melting temperature (tested on HeLa Kyoto) of MAPQRRAATKAPEGNGAAERRNRSSTKKDRAPREVQRLWQRPWLRTAGLGAGFVLTALLLWSSLGADDGVAEVLARRGEVVAGRFIEVPCSEDYDSHRRFEGCTPRKCGRGVTDVVITREEAERIRSVAEKGLSLGGSDGGASILDLHSGALSVGKHFVNLYRYFGDKIQNIFSEEDFRLYREVRQKVQLTIAEAFGISASSLHLTKPTFFSRINSTEARTAHDEYWHAHVDKVTYGSFDYTSLLYLSNYLEDFGGGRFMFMEEGANKTVEPRAGRVSFFTSGSENLHRVEKVHWGTRYAITIAFSCNPDHGIEDPAFP [OGFOD3]
-- reply 53.1

-- ask Form: Entry = MLRSCAARLRTLGALCLPPVGRRLPGSEPRPELRSFSSEEVILKDCSVPNPSWNKDLRLLFDQFMKKCEDGSWKRLPSYKRTPTEWIQDFKTHFLDPKLMKEEQMSQAQLFTRSFDDGLGFEYVMFYNDIEKRMVCLFQGGPYLEGPPGFIHGGAIATMIDATVGMCAMMAGGIVMTANLNINYKRPIPLCSVVMINSQLDKVEGRKFFVSCNVQSVDEKTLYSEATSLFIKLNPAKSLT [THEM4] | System = HeLa Kyoto | melting temperature = ____
-- reply 56.2

-- ask Request - read-out melting temperature | tested on HeLa Kyoto | sequence MANRGPAYGLSREVQQKIEKQYDADLEQILIQWITTQCRKDVGRPQPGRENFQNWLKDGTVLCELINALYPEGQAPVKKIQASTMAFKQMEQISQFLQAAERYGINTTDIFQTVDLWEGKNMACVQRTLMNLGGLAVARDDGLFSGDPNWFPKKSKENPRNFSDNQLQEGKNVIGLQMGTNRGASQAGMTGYGMPRQIL [TAGLN2]
-- reply 51.7

-- ask Form field - read-out: melting temperature; system: HeLa Kyoto; submitted item: MAQAKINAKANEGRFCRSSSMADRSSRLLESLDQLELRVEALREAATAVEQEKEILLEMIHSIQNSQDMRQISDGEREELNLTANRLMGRTLTVEVSVETIRNPQQQESLKHATRIIDEVVNKFLDDLGNAKSHLMSLYSACSSEVPHGPVDQKFQSIVIGCALEDQKKIKRRLETLLRNIENSDKAIKLLEHSKGAGSKTLQQNAESRFN [BAG2]
-- reply 50.9

// provenance: the supplement of paper PMC5998384
